FYI, the data here is from ChEMBL document CHEMBL1201862.

# Tested on: MOLT-4
# EXPERIMENT_DESCRIPTION: NCI tumour cell line growth inhibition, 48 h
Activity calls are given as the source filed them. Cut-off read from the data, not from the text of the source: active = GI50 up to about 1.1 µM and inactive = higher. Where a SMILES comes first, the peptide text is derived from it. The star is where a group is joined. X33 = O=C(c1ccc(-c2ccc(Cl)cc2Cl)o1)*
Outcome codes: active, inactive

{"COMPOUND": "CC(C)(C)c1cc(S(=O)(=O)O)c2oc(-c3ccccc3)cc(=O)c2c1", "CAT": "inactive"}
{"COMPOUND": "Nc1cccc(C#Cc2cccc(C#Cc3cccc(N)n3)n2)n1", "CAT": "inactive"}
{"COMPOUND": "CCC(C)C(NC(=O)CNC(=O)C(Cc1ccccc1)NC(=O)C1CCCN1C(=O)c1ccc(-c2ccc(Cl)cc2Cl)o1)C(=O)OC (stereo not given) (X33-PFGI-OMe; configuration not given here)", "CAT": "inactive"}
{"COMPOUND": "COC(=O)[C@@H]1C[C@]2(CC=C(C)C)c3ccccc3N(S(=O)(=O)c3ccccc3)[C@@H]2N1C(=O)OC", "CAT": "inactive"}
{"COMPOUND": "O=[N+]([O-])c1ccc2sc(/C=N/c3ccccn3)cc2c1", "CAT": "inactive"}
{"COMPOUND": "CCC/C(=N\\NC(=O)c1cc2ccccc2cc1O)C(CC)C(=O)CCC(=O)N(Cc1ccccc1)Cc1ccccc1 (stereo not given)", "CAT": "inactive"}
{"COMPOUND": "O=S1(=O)OCCOS(=O)(=O)C1Cl", "CAT": "inactive"}
{"COMPOUND": "CCOC(=O)C1CC(C(=O)c2ccccc2)N2c3ccccc3-c3ccccc3C12 (stereo not given)", "CAT": "inactive"}
{"COMPOUND": "Cc1cc(NS(=O)(=O)c2ccc(NC(=O)c3cccc4c(NNc5ccc(S(N)(=O)=O)cc5)c5ccccc5nc34)cc2)no1", "CAT": "inactive"}
{"COMPOUND": "COC(=O)Nc1nc(=O)c2ccccc2[nH]1", "CAT": "inactive"}
{"COMPOUND": "CC(=O)N(C(C)=O)c1cc2c3c(c1)CCCN3CCC2", "CAT": "inactive"}
{"COMPOUND": "CN(C)Cc1cc(/C(=C(\\C#N)c2ccccc2)c2ccc(O)cc2)ccc1O", "CAT": "inactive"}
{"COMPOUND": "CC(NC1=CC(=O)c2cccnc2C1=O)C(O)c1ccccc1 (stereo not given)", "CAT": "inactive"}
{"COMPOUND": "O=C(Cc1ccccc1)NN1C(=O)C(Cl)C1c1ccccc1O (stereo not given)", "CAT": "inactive"}
{"COMPOUND": "CCOC(=O)C[n+]1cccc(C2(c3cc4ccccc4[nH]3)OCCO2)c1", "CAT": "inactive"}
{"COMPOUND": "O=C(Nc1c(Cl)cccc1Cl)c1c(Cl)c(Cl)c(Cl)c(Cl)c1-c1nc2ccccc2[nH]1", "CAT": "inactive"}
{"COMPOUND": "O=[N+]([O-])/C=C/COCc1cc2c(cc1Br)OCO2", "CAT": "inactive"}
{"COMPOUND": "CN(CCN(C)Cc1ccc(Cl)c(Cl)c1)CCN1CCCC1", "CAT": "inactive"}
{"COMPOUND": "CC(=O)Nc1[nH]n(C)c(=O)c1-c1nnc(C)s1", "CAT": "inactive"}
{"COMPOUND": "c1ccc(C/C(=N\\Nc2nc3ccccc3o2)c2ccccn2)cc1", "CAT": "active"}
